# credit: paper PMC12446422

Experiment: ART drug monitoring in serum of breastfed HEU infants (HPLC-UV)
Assay type: in vivo, human
Conditions: human, serum, other: breastfeeding (maternal ART), 6 months of age; breastfeeding exclusive, partial or stopped; read-out: ART level in infant serum (IS)
Measure Name: concentration at 6 months (infant age) (ng/mL)
Answer with a number only, understood to be in ng/mL.

Sample Cc1ccnc2c1NC(=O)c1cccnc1N2C1CC1 [NVP, nevirapine] — what was its concentration at 6 months (infant age)?
649

----------
Test: ART drug monitoring in breast milk (HPLC-UV)
Assay type: in vivo, human
Details: female, human, oral, 4 months of age, read-out: ART level in breast milk (BM)
Measure Name: concentration at 4 months (infant age) (ng/mL)
The reply should be a number in ng/mL, with the unit left off.

Which concentration at 4 months (infant age) reading was recorded for the molecule Cc1nnc(C(=O)NC(C)(C)c2nc(C(=O)NCc3ccc(F)cc3)c(O)c(=O)n2C)o1 [RAL, raltegravir] ?
168
